// data source = patent US20250340659A1

Target: T1, canine OX40L, full length membrane form, expressed on HEK293 cells (canine)
T1 construct: also called OX40L expressing HEK; HEK OX40L cells
T1 chain: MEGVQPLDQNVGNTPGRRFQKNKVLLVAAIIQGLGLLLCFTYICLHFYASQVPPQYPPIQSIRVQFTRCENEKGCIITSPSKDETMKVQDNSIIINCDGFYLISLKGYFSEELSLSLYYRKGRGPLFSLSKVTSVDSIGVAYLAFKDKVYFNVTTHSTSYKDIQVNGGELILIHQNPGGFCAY
Assay: flow cytometry
Recorded GEO mean OX40L expressing HEK for the following binders
API doc: respond with a numeric literal and nothing else, no unit.

In the examples that follow, each entry is paired with its recorded GEO mean OX40L expressing HEK.
binder="PMX064 (antibody, V domains shown, also called PMX64) VH: EVQLVESGGDLVKPGGSLRLSCVASGFTFSSYHMSWVRQAPGKGLQWVAYITSGGITTSYADAVKGRFTISRDNAKNTLYLQMNSLRAEDTAVYYCASDLVLILGGADYWGQGTLVTVSS VL: SYELTQPPSVNVTLSETAHITCGGDSIGRKYVQWIQQNPGQAPVVIIYKDSNRPTGIPERFSGANSGNTATLTISGALAEDEADYYCQVGDSGTKAVFGGGTHLTVL" recorded_measurement=3.45e+06
binder="PMX029 (antibody, V domains shown, also called PMX29) VH: EVQLVESGGDLVKPGGSLRLSCVASGFTFSSYHMNWVRQAPGKGLQWVAYINTGGSRTSYADAVKGRFTISRDNAKNTLYLQMNSLRAEDTAVYYCANNYWDNFDSWGQGTLVTVSS VL: SYELTQPPSVNVTLRETAHITCGGDSIGSKYVQWIQQNPGQAPVVIIYKDTNRPTGIPERFSGANSGNTATLTISGALAEDEADYYCQVGDSGTKASVFGGGTHLTVL" recorded_measurement=1.09e+06

Proceed to the following item.
Prompt line: Please look up its GEO mean OX40L expressing HEK: PMX292 (antibody, V domains shown) VH: AVQLVESGGDLVRPGGSLRLSCVASGFTFSNFDMYWVRQAPGRGLQWVATISYDGFNTYSTDTVRGRFTISRDNARNTVYLQMNSLRVEDTAVFYCTARRFGLGYWGQGTLVTVSS VL: DIFMAQTPPSLSVSPRETASISCKASQSLLHSDGNTYLDWYLQKPGQSPQLLIYLVSNRFPGVSDRFSGSGSGTGFTLRISRVEASDTGVYYCGQGTQLPYTFSQGTKLEIK
Response line: 471000
